Target: cdk1/cyclin B (Homo sapiens, UniProt P06493)
Sequence (P06493 whole entry): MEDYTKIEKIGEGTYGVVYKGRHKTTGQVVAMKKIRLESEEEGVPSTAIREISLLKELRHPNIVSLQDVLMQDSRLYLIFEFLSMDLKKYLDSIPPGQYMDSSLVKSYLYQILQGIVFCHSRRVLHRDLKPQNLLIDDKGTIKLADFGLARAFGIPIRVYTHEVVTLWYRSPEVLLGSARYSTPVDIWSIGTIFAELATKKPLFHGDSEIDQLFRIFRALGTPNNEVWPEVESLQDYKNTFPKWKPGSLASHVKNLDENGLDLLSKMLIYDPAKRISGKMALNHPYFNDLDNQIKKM
Sequence (P14635 whole entry partner): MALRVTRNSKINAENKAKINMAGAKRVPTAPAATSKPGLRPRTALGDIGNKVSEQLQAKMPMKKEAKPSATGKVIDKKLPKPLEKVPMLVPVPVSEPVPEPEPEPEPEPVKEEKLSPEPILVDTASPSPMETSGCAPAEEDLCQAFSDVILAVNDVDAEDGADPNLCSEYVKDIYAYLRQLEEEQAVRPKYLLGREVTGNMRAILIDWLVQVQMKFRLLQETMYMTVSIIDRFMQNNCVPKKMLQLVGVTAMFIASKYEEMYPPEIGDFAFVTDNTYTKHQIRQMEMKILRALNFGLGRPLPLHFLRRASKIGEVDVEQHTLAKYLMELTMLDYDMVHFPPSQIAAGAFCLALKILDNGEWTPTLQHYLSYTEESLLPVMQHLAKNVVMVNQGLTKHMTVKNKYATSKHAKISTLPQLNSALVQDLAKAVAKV
Experiment: Cyclin-dependent kinase assay, cdk1/cyclin B
Details: CDK1 IC50, nM, Histone H1, 10 µM ATP
Where a name gives a salt, the structure may show the parent alone.
# note: boundary value 40 nM maps to not met; IC50 below it maps to met

# TODO verify IC50 < 40 nM strictly for this compound: N[C@H]1CC[C@H](Nc2nc(NC3CCN(S(=O)(=O)c4ccc(I)cc4)CC3)c3ncn(C4CCCC4)c3n2)CC1 [compound 122, dihydrochloride]
met

# TODO verify IC50 < 40 nM strictly for this compound: N[C@H]1CC[C@H](Nc2nc(NC3CCN(S(=O)(=O)c4ccc5ccccc5c4)CC3)c3ncn(C4CCCC4)c3n2)CC1 [compound 116, dihydrochloride]
met

# TODO verify IC50 < 40 nM strictly for this compound: CC(C)n1cnc2c(NC3CCN(S(=O)(=O)c4ccc(C#N)cc4)CC3)nc(N[C@H]3CC[C@H](N)CC3)nc21 [compound 145, dihydrochloride]
met

# TODO verify IC50 < 40 nM strictly for this compound: N[C@H]1CC[C@H](Nc2nc(NC3CCN(C(=O)C4CCCCC4)CC3)c3ncn(C4CCCC4)c3n2)CC1 [compound 55, dihydrochloride]
not met

# TODO verify IC50 < 40 nM strictly for this compound: N[C@H]1CC[C@H](Nc2nc(NC3CCN(S(=O)(=O)Cc4ccccc4)CC3)c3ncn(C4CCCC4)c3n2)CC1 [compound 119, dihydrochloride]
met

# TODO verify IC50 < 40 nM strictly for this compound: CCCCS(=O)(=O)N1CCC(Nc2nc(N[C@H]3CC[C@H](N)CC3)nc3c2ncn3C2CCCC2)CC1 [compound 129, dihydrochloride]
not met

# TODO verify IC50 < 40 nM strictly for this compound: CC(C)S(=O)(=O)N1CCC(Nc2nc(N[C@H]3CC[C@H](N)CC3)nc3c2ncn3C2CCCC2)CC1 [compound 125, dihydrochloride]
not met

# TODO verify IC50 < 40 nM strictly for this compound: Cl.Cl.N[C@H]1CC[C@H](Nc2nc(NC3CCN(C(=O)Oc4ccc(Br)cc4)CC3)c3ncn(C4CCCC4)c3n2)CC1 [compound 81, dihydrochloride]
met

# TODO verify IC50 < 40 nM strictly for this compound: C[C@H](O)C(=O)N1CCC(Nc2nc(N[C@H]3CC[C@H](N)CC3)nc3c2ncn3C2CCCC2)CC1 [compound 47, dihydrochloride]
met

# TODO verify IC50 < 40 nM strictly for this compound: N[C@H]1CC[C@H](Nc2nc(NC3CCN(C(=O)Nc4cc(C(F)(F)F)ccc4F)CC3)c3ncn(C4CCCC4)c3n2)CC1 [compound 200, dihydrochloride]
met

# TODO verify IC50 < 40 nM strictly for this compound: N[C@H]1CC[C@H](Nc2nc(NC3CCN(C(=O)c4ccc(Cl)c(Cl)c4)CC3)c3ncn(C4CCCC4)c3n2)CC1 [compound 15]
not met

# TODO verify IC50 < 40 nM strictly for this compound: Cl.Cl.N[C@H]1CC[C@H](Nc2nc(NC3CCN(C(=O)Oc4ccc(Cl)cc4)CC3)c3ncn(C4CCCC4)c3n2)CC1 [compound 88, dihydrochloride]
met

Measured values drawn from patent EP1377579B1 for this set.
